System: Sarcoma 180 Ascites
ASSAY: Sarcoma 180 Ascites (S180a) antitumor screening
Type: in vivo, Female CFW mice
EXPERIMENTAL CONDITIONS: Dose 160 mg/kg ip in water on day one; ILS ≧ 50% indicates activity
REPORTED METRIC: %ILS (%)
One number for each entry, in %.

[
  {
    "COMPOUND": "Nc1nc2c(c(=O)[nH]1)[n+]([Pt]([NH2])([NH2])[Cl])cn2C1OC(CO)C(O)C1O.O=[N+]([O-])[O-] (stereo not drawn) [cis-[Pt(NH₃)₂(guanosine)Cl]NO₃]",
    "ASSAY SYSTEM": "Sarcoma 180 Ascites",
    "%ILS (%)": 79
  },
  {
    "COMPOUND": "N.N.Nc1ccn(C2CC(O)C(CO)O2)c(=O)n1.[Cl-].[Cl-].[Pt+2] (stereo not drawn) [cis-[Pt(NH₃)₂(2′-deoxycytidine)Cl]Cl]",
    "ASSAY SYSTEM": "Sarcoma 180 Ascites",
    "%ILS (%)": 76
  },
  {
    "COMPOUND": "Nc1ccn(C2OC(CO)C(O)C2O)c(=O)[n+]1[Pt]([NH2])([NH2])[Cl].O=[N+]([O-])[O-] (stereo not drawn) [cis-[Pt(NH₃)₂(cytidine)Cl]NO₃]",
    "ASSAY SYSTEM": "Sarcoma 180 Ascites",
    "%ILS (%)": 8
  }
]

Field: next compound
Reported %ILS, compound N.N.Nc1ccn(C2OC(CO)C(O)C2O)c(=O)n1.O=[N+]([O-])[O-].[Cl-].[Pt+2] (stereo not shown) : ____
51

* * *

Test system: Sarcoma 180 Ascites
ASSAY: Sarcoma 180 Ascites (S180a) antitumor screening
Assay type: in vivo, Female CFW mice
EXPERIMENTAL CONDITIONS: Dose 160 mg/kg ip; survivors per group of 6 mice at twice the MST of controls
REPORTED METRIC: Surv

Examples with their reported Surv follow.
[
  {
    "COMPOUND": "N.N.Nc1ccn(C2OC(CO)C(O)C2O)c(=O)n1.O=[N+]([O-])[O-].[Cl-].[Pt+2] (stereo not shown)",
    "Surv": "1/6"
  },
  {
    "COMPOUND": "Nc1ccn(C2OC(CO)C(O)C2O)c(=O)[n+]1[Pt]([NH2])([NH2])[Cl].O=[N+]([O-])[O-] (stereo not drawn) [cis-[Pt(NH₃)₂(cytidine)Cl]NO₃]",
    "Surv": "0/6"
  },
  {
    "COMPOUND": "Nc1nc2c(c(=O)[nH]1)[n+]([Pt]([NH2])([NH2])[Cl])cn2C1OC(CO)C(O)C1O.O=[N+]([O-])[O-] (stereo not drawn) [cis-[Pt(NH₃)₂(guanosine)Cl]NO₃]",
    "Surv": "3/6"
  }
]

Look up Surv for this compound: N.N.Nc1ccn(C2CC(O)C(CO)O2)c(=O)n1.[Cl-].[Cl-].[Pt+2] (stereo not drawn) [cis-[Pt(NH₃)₂(2′-deoxycytidine)Cl]Cl]
4/6

* * *

Can you tell me %ILS for the items I'm about to list?
System: Sarcoma 180 Ascites
ASSAY: Sarcoma 180 Ascites (S180a) antitumor screening
Type: in vivo, Female CFW mice
EXPERIMENTAL CONDITIONS: Dose 80 mg/kg ip in water on day one; ILS ≧ 50% indicates activity
Numbers only, in %.

[
  {
    "COMPOUND": "Nc1nc2c(c(=O)[nH]1)[n+]([Pt]([NH2])([NH2])[Cl])cn2C1OC(CO)C(O)C1O.O=[N+]([O-])[O-] (stereo not drawn) [cis-[Pt(NH₃)₂(guanosine)Cl]NO₃]",
    "ASSAY SYSTEM": "Sarcoma 180 Ascites",
    "%ILS, %": 16
  },
  {
    "COMPOUND": "N.N.Nc1ccn(C2CC(O)C(CO)O2)c(=O)n1.[Cl-].[Cl-].[Pt+2] (stereo not drawn) [cis-[Pt(NH₃)₂(2′-deoxycytidine)Cl]Cl]",
    "ASSAY SYSTEM": "Sarcoma 180 Ascites",
    "%ILS, %": 85
  },
  {
    "COMPOUND": "N.N.Nc1ccn(C2OC(CO)C(O)C2O)c(=O)n1.O=[N+]([O-])[O-].[Cl-].[Pt+2] (stereo not shown)",
    "ASSAY SYSTEM": "Sarcoma 180 Ascites",
    "%ILS, %": 42
  }
]

Now, please, on to the next compound.
Given the compound Nc1ccn(C2OC(CO)C(O)C2O)c(=O)[n+]1[Pt]([NH2])([NH2])[Cl].O=[N+]([O-])[O-] (stereo not drawn) [cis-[Pt(NH₃)₂(cytidine)Cl]NO₃] , what is its reported %ILS?
-7
